target: Cytochrome P450 1A2 (Homo sapiens) (UniProt P05177); assay: Cytochrome P450 Family 1 Subfamily A Member 2 (CYP1A2) small molecule antagonists: luciferase reporter qHTS assay (AID 1671199); conditions: P450-Glo CYP1A2 enzyme, luciferin luminescence, 1 h; series mostly up to 115 µM; further: potency means the concentration at half of the fitted maximal effect; nearly all actives have a fitted effect of over 50% in size
Sequence (P05177 whole entry, looked up): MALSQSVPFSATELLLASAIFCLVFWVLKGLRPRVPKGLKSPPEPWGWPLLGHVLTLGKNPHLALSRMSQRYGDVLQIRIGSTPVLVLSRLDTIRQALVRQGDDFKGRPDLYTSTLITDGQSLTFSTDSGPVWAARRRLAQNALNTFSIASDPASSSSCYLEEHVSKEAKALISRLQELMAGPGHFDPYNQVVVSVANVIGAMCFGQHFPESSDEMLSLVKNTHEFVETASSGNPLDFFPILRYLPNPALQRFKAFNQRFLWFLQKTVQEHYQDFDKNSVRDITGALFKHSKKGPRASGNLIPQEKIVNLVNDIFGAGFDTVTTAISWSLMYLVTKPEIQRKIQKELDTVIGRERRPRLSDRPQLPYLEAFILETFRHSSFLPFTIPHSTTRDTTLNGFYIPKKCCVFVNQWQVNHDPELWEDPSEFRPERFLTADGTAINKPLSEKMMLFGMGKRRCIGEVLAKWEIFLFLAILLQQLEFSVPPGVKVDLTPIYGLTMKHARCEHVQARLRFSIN
Results filed as inconclusive are left out. Activity calls are given as the source filed them. The call rests on the fitted dose curve; in most records, active means well fitted inhibition curve with a large enough effect in the repeat runs; inconclusive means weak or mixed curves; inactive means no such curve, though single readings can be large or run the other way.
quantity: Potency

compound: O=C(Oc1ccccc1)c1ccccc1
Potency: 31.7 µM (active)

Kindly review the next compound as well.
## Input Reported Potency, compound CCCCC(CC)COC(=O)C(C#N)=C(c1ccccc1)c1ccccc1 (stereo not drawn) : ____
## Output 31.7 µM (active)

----------
experiment: Caspase-3/7 induction in HepG2 cells by small molecules, qHTS cell viability counter screen (AID 1346981); settings: CellTiter-Fluor fluorescence, 17 h; series mostly up to 92.4 µM; further: nearly all actives have a fitted effect of over 30% in size
Records with an inconclusive call do not appear. Activity calls are given as the source filed them. Calls come from the whole dose curve; as a rule, active = well fitted cell-killing curve with a large enough effect in the repeat runs; inconclusive = weak or mixed curves, or effect the other way; inactive = flat fitted curve, though single readings scatter.
Answer with one of the outcomes given here: t = active, f = inactive

compound: Cc1ccc2oc(=O)ccc2c1
assignedClass: f

compound: CCC(O)OCCCOC (stereo not drawn)
assignedClass: f

compound: CCCCCCCCC/C=C/CC1CC(=O)OC1=O (stereo not drawn)
assignedClass: f

compound: O=C(O)c1ccc(C(=O)O)cc1
assignedClass: f

compound: c1ccc2c(c1)ccc1ccccc12
assignedClass: f

compound: COc1ccc(NC(C)=O)cc1N
assignedClass: f

## Input Fill in: this test's call for "O=P(OC(CCl)CCl)(OC(CCl)CCl)OC(CCl)CCl" is ___
## Output t

## Input Fill in: this test's call for "CC(=O)CC(=O)Nc1ccccc1C" is ___
## Output f

----------
target: Estrogen receptor (Homo sapiens); assay: qHTS assay to identify small molecule antagonists of the estrogen receptor alpha (ER-alpha) signaling pathway using the BG1 cell line in the presence of 0.1 nM 17-beta-estradiol (AID 1259244); conditions: VM7Luc4E2 (BG1) ERE-luciferase, antagonist mode, 0.1 nM E2, 22 h; series mostly up to 92.4 µM; further: nearly all actives have a fitted effect of over 50% in size
Records with an inconclusive call do not appear. Active and inactive are the calls of the source. Calls follow the shape of the dose curve; as a rule, active = well fitted inhibition curve with a large enough effect in the repeat runs; inconclusive = weak or mixed curves; inactive = no such curve, though single readings can be large or run the other way.
Answer with one of the outcomes given here: active, inactive

compound: O=[N+]([O-])c1ccc(/C=C/c2ccc([N+](=O)[O-])cc2S(=O)(=O)O)c(S(=O)(=O)O)c1
assignedClass: inactive

## Input Fill in: this test's call for "CCCCN(CCCC)CCCC" is ___
## Output inactive

----------
assay: qHTS assay for identifying genotoxic compounds that show differential cytotoxicity against isogenic chicken DT40 cell lines with known DNA damage response pathways - wild type cell line (AID 743012); details: DT40 wild type chicken cells viability, CellTiter-Glo, 40 h; series mostly up to 68.4 µM; further: nearly all actives have a fitted effect of over 60% in size
Inconclusive results are not listed. Active and inactive are the calls of the source. The call rests on the fitted dose curve; in most records, active means well fitted cell-killing curve with a large enough effect in the repeat runs; inconclusive means weak or mixed curves, or effect the other way; inactive means no such curve, though single readings can be large or run the other way.
Answer with one of the outcomes given here: class 1 (active), class 0 (inactive)

For orientation, consider the following solved cases.
compound: CC(C)c1ccc(S(=O)(=O)O)cc1
assignedClass: class 0
--
compound: O=c1[nH]nnc2ccccc12
assignedClass: class 0
--
compound: Nc1cc([N+](=O)[O-])ccc1O
assignedClass: class 0
--
compound: Cc1cccc(O)c1
assignedClass: class 0
--
compound: CCCCCCCCCCCCS
assignedClass: class 0

Next up:
## Input Fill in: this test's call for "c1c[nH]cn1" is ___
## Output class 0

----------
biological target: Cytochrome P450 2C9 (Homo sapiens) (UniProt P11712); experiment: Cytochrome P450 Family 2 Subfamily C Member 9 (CYP2C9) small molecule antagonists: luciferase reporter qHTS assay (AID 1671198); conditions: P450-Glo CYP2C9 enzyme assay, luciferin luminescence; series mostly up to 115 µM; further: nearly all actives have a fitted effect of over 50% in size; further: potency means the concentration at half of the fitted maximal effect
Sequence (P11712 whole entry, looked up): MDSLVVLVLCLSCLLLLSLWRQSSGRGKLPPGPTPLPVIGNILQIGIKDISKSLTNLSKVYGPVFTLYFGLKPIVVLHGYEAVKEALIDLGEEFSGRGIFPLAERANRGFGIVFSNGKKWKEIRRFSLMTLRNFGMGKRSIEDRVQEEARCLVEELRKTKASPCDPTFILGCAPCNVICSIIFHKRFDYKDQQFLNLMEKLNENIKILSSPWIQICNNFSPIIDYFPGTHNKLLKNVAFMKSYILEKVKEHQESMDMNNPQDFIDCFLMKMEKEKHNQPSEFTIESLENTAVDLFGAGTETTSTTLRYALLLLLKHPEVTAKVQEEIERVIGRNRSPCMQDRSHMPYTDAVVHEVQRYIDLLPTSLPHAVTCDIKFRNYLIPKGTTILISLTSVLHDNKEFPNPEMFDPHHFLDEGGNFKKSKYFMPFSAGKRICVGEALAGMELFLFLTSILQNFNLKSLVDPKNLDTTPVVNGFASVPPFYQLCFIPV
Results filed as inconclusive are left out. The source made the active and inactive calls. The call rests on the fitted dose curve; in most records, active means well fitted inhibition curve with a large enough effect in the repeat runs; inconclusive means weak or mixed curves; inactive means no such curve, though single readings can be large or run the other way.
quantity: Potency

Answered cases to consult:
molecule: CC(c1cc2ccccc2s1)N(O)C(N)=O (stereo unspecified)
Potency: 71 µM (active)
--
molecule: CC1CCC(C(C)C)C(O)C1 (stereo unspecified)
Potency: inactive
--
molecule: COc1cc(Cc2cnc(N)nc2N)cc(OC)c1OC
Potency: inactive
--
molecule: CCCCCCOCCO
Potency: inactive
--
molecule: CCCCCCCCCCCCCCO
Potency: inactive
--
molecule: O=C1CCC(N2C(=O)c3ccccc3C2=O)C(=O)N1 (stereo unspecified)
Potency: inactive
--
molecule: CSCCC=O
Potency: 35.6 µM (active)
--
molecule: C=CCNC(N)=S
Potency: inactive
--
molecule: C=C(C)C(=O)OCCOCCOCCOC(=O)C(=C)C
Potency: 40 µM (active)
--
molecule: CC(=O)OCC(=O)[C@@]12N=C(C)O[C@@H]1C[C@H]1[C@@H]3CCC4=CC(=O)C=C[C@]4(C)[C@H]3[C@@H](O)C[C@@]12C
Potency: inactive

Kindly review the next molecule as well.
## Input Give recorded Potency with Cytochrome P450 2C9 (Homo sapiens) (UniProt P11712) for the following molecule: "Cc1ccc2oc(=O)ccc2c1"
## Output inactive
